Below, each of the compounds is paired with its reported Emax value.
- MEASURED_TARGET: PR-A (Homo sapiens, UniProt P06401)
- Construct: expressed in transfected cells
- Sequence (P06401 165-933): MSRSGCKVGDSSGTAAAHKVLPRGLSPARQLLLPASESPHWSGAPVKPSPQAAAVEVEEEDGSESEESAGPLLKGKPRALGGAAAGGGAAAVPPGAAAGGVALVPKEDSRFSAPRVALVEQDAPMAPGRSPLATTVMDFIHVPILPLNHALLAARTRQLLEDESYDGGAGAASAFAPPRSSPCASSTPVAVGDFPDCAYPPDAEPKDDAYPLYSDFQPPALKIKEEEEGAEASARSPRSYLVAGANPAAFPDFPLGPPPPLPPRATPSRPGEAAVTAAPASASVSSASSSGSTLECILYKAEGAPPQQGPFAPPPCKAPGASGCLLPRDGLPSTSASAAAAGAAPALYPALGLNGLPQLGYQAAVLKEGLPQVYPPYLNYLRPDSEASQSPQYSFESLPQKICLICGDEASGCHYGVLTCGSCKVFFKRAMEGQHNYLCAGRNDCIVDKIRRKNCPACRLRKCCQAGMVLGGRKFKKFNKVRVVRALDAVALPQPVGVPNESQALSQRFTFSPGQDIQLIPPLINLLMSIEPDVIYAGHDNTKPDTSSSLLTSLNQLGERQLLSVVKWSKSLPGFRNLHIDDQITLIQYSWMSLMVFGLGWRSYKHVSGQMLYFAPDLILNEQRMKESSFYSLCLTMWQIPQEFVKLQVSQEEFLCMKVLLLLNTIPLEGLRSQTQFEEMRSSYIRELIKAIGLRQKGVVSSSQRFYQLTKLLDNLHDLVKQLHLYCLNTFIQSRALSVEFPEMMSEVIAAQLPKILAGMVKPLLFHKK
- ASSAY_PROCEDURE: Transactivation test on antagonistic activity at PR-A
- Assay type: cell-based
- DETAILS: read-out: Efficacy (antagonism at PR-A) [%]

COMPOUND: CNC(=O)c1cccc(-c2cccc(CC(O)(C(=O)Nc3ccc(C#N)c(C(F)(F)F)c3)C3CCN(C(=O)c4ccccc4)CC3)c2)c1 (single isomer, unassigned) [Example 159]
MEASURED_TARGET: PR-A (Homo sapiens, UniProt P06401)
Emax, %: 96.2

COMPOUND: CNS(=O)(=O)c1ccc(-c2cccc(C[C@](O)(C(=O)Nc3ccc(C#N)c(C(F)(F)F)c3)C3CCCCC3)c2)cc1 (stereo in doubt) [Example 63]
MEASURED_TARGET: PR-A (Homo sapiens, UniProt P06401)
Emax, %: 104

COMPOUND: CS(=O)(=O)N1CCN(Cc2cccc(CC(O)(C(=O)Nc3ccc(C#N)c(C(F)(F)F)c3)C3CCCCC3)c2)CC1 (stereo not drawn) [Example 84]
MEASURED_TARGET: PR-A (Homo sapiens, UniProt P06401)
Emax, %: 102

COMPOUND: CC(=O)Nc1cccc(-c2cccc(CC(O)(C(=O)Nc3ccc(C#N)c(C(F)(F)F)c3)C3CCCCC3)c2)c1 (stereo not drawn) [Example 71]
MEASURED_TARGET: PR-A (Homo sapiens, UniProt P06401)
Emax, %: 100

COMPOUND: N#Cc1ccc(NC(=O)C(O)(Cc2cccc(-c3ccsc3)c2)C2CCCCC2)cc1C(F)(F)F (stereo not drawn) [Example 59]
MEASURED_TARGET: PR-A (Homo sapiens, UniProt P06401)
Emax, %: 103

COMPOUND: CS(=O)(=O)N1CCC(C(O)(Cc2ccccc2)C(=O)Nc2ccc(C#N)c(C(F)(F)F)c2)CC1 (single isomer, unassigned) [Example 103]
MEASURED_TARGET: PR-A (Homo sapiens, UniProt P06401)
Emax, %: 98.5

Reference source for all entries: patent US20090270381A1
